Data origin: patent US20240301052A1

In this section, each of the binders is paired with its reported cytotoxicity EC50.
# tested.target: T1, human SLC34A2 (human, UniProt O95436 1-690)
# T1 sequence (looked up): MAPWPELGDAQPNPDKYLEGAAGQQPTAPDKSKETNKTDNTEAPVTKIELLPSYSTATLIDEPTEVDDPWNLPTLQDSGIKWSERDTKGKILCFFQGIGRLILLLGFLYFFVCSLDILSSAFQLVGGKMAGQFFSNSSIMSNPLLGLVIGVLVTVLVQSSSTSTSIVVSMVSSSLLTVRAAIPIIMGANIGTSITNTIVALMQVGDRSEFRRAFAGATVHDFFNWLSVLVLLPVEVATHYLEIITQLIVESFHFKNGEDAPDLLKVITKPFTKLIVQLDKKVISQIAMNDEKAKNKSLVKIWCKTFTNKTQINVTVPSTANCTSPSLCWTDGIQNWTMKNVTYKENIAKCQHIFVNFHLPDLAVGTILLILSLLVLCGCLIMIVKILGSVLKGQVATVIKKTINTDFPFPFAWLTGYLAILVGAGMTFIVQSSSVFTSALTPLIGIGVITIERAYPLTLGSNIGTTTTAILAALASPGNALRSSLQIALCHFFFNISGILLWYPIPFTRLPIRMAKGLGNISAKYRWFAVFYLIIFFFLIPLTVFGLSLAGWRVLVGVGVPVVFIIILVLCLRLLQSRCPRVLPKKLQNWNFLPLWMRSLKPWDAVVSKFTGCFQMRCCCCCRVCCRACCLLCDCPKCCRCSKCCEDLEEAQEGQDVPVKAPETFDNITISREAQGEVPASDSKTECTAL
# experimental.protocol: cell-based or functional assay

{"columns": ["binder", "readout.unit", "cytotoxicity EC50"],
 "data": [
  ["xi62G10E4G8 hIgG1 (antibody, V domains shown, chimeric, hIgG1) VH: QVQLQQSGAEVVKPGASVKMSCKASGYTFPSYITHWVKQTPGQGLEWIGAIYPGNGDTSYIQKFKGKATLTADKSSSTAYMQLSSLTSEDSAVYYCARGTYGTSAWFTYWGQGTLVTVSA VL: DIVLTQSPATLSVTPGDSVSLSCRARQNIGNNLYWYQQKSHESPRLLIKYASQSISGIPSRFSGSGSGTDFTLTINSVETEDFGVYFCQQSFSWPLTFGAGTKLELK", "nM", 0.42],
  ["xi30H9B8F9 hIgG1 (antibody, V domains shown, chimeric, hIgG1) VH: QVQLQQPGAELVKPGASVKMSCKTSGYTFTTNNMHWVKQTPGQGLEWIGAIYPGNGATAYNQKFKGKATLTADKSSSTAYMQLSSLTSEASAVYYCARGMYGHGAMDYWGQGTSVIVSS VL: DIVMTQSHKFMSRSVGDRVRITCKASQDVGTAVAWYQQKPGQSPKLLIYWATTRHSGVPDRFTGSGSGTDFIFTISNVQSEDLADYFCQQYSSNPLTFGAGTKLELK", "nM", 0.84],
  ["xi84F2D10 hIgG1 (antibody, V domains shown, chimeric, hIgG1) VH: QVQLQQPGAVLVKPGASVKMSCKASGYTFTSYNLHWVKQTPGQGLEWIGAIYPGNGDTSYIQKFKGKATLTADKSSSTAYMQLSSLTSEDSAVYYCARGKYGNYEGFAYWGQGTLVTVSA VL: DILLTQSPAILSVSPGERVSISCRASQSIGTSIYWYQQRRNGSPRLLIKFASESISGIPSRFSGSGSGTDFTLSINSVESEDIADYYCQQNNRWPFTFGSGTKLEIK", "nM", 0.61]
]}
